Test: ChromlogD assay
Description: The Chromatographic Hydrophobicity Index (CHI)[22] values were measured using reversed phase HPLC column (Luna C18 (2), Phenomenex, UK) with a fast acetonitrile gradient at starting mobile phase of pH = 7.4. CHI values are derived directly from the gradient retention times by using a calibration line obtained for standard compounds. The CHI value approximates to the volume % organic concentration when the compound elutes. […] The average error of the assay is ±3 CHI unit or ±0.25 ChromlogD.
reported_property: PFI
# output: bare number, no unit

The cases that follow already have their PFI on record.
get_value(item= Cn1cc(-c2cnc3[nH]cc(-c4cccc(C#N)c4)c3c2)cn1 [NEU-0001207] , readout=PFI) returns 7.84

get_value(item= CN(C)Cc1ccc(-c2[nH]c3ncc(C#N)cc3c2-c2ccccc2)cc1 [NEU-0001206] , readout=PFI) returns 7.88

get_value(item= O=S1(=O)Cc2ccc(Nc3nccc(-c4ccc(F)cc4)n3)cc2C1 [NEU-0001142] , readout=PFI) returns 7.11

get_value(item= CCCCc1nc(Nc2cccc(C)c2)c2c(=O)[nH]ccc2n1 [NEU-0001191] , readout=PFI) returns 8.54

get_value(item= CCCNc1nc(Nc2cnn(C)c2)c2c(=O)[nH]ccc2n1 [NEU-0001187] , readout=PFI) returns 5.43

get_value(item= Cc1cc(Nc2cc(C3CC3)[nH]n2)nc(N2CCCCC2)n1 [NEU-0001127] , readout=PFI) returns 6.13

Further cases:
get_value(item= O=C(Nc1ccc(-c2ccnc3[nH]ccc23)s1)C1(Cc2ccccc2)CCCNC1 (stereo not shown) [NEU-0001240] , readout=PFI) returns 7.26

###

The reader will find reported IC50 values listed item by item below.
Molecular target: IKK1 (Homo sapiens)
Sequence (O15111 whole entry): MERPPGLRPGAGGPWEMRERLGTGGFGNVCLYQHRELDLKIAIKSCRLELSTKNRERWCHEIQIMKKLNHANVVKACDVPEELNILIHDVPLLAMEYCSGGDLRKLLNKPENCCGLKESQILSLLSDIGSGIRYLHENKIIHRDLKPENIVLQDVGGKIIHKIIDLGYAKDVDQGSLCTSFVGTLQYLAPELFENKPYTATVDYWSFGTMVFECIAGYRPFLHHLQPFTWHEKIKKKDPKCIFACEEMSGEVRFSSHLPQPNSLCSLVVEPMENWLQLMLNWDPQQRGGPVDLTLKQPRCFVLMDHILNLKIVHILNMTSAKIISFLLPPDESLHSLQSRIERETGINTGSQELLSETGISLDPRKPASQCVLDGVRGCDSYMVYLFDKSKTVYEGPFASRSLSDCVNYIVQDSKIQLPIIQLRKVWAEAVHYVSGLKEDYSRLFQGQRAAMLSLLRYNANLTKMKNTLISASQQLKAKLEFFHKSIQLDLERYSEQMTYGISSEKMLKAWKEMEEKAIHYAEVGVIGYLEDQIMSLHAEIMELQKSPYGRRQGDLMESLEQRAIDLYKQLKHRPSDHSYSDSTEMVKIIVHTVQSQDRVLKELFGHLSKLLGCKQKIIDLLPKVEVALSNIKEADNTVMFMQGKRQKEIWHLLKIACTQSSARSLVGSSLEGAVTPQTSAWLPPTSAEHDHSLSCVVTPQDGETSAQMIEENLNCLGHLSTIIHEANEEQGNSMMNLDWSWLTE
Experiment: Human kinase selectivity screening: IKK1
Assay type: biochemical
Settings: read-out: IKK1 pIC50 values (converted)
Give just the numeric value; nM need not be written.

get_value(item= CCCNc1nc(Nc2cnn(C)c2)c2c(=O)[nH]ccc2n1 , readout=IC50) returns 1580

get_value(item= Cc1cc(Nc2cc(C3CC3)[nH]n2)nc(N2CCCCC2)n1 , readout=IC50) returns 20000

get_value(item= Cn1cc(-c2cnc3[nH]cc(-c4cccc(C#N)c4)c3c2)cn1 , readout=IC50) returns 158

get_value(item= O=C(Nc1ccc(-c2ccnc3[nH]ccc23)s1)C1(Cc2ccccc2)CCCNC1 (stereo not shown) , readout=IC50) returns 1580

Please find the next compound below.
get_value(item= O=S1(=O)Cc2ccc(Nc3nccc(-c4ccc(F)cc4)n3)cc2C1 , readout=IC50) returns 631

###

Assay: CLND kinetic solubility assay
Type: physicochemical
Details: phosphate buffered saline, pH 7.4, aqueous buffer, kinetic from dmso stock; Measured; read-out: Aq Sol
Each entry gets no if its solubility kinetic at 1 h stays under 20 µM, and yes if its solubility kinetic at 1 h is 20 µM or above.

Exam item: decide whether the reported solubility kinetic at 1 h for CCCNc1nc(Nc2cnn(C)c2)c2c(=O)[nH]ccc2n1 is at least 20 µM. yes

Exam item: decide whether the reported solubility kinetic at 1 h for CCCCc1nc(Nc2cccc(C)c2)c2c(=O)[nH]ccc2n1 is at least 20 µM. yes

Exam item: decide whether the reported solubility kinetic at 1 h for O=S1(=O)Cc2ccc(Nc3nccc(-c4ccc(F)cc4)n3)cc2C1 is at least 20 µM. no

Exam item: decide whether the reported solubility kinetic at 1 h for Cc1cc(Nc2cc(C3CC3)[nH]n2)nc(N2CCCCC2)n1 is at least 20 µM. yes

Exam item: decide whether the reported solubility kinetic at 1 h for O=C(Nc1ccc(-c2ccnc3[nH]ccc23)s1)C1(Cc2ccccc2)CCCNC1 (stereo not shown) is at least 20 µM. yes

Exam item: decide whether the reported solubility kinetic at 1 h for Cn1cc(-c2cnc3[nH]cc(-c4cccc(C#N)c4)c3c2)cn1 is at least 20 µM. no

Further cases:
Exam item: decide whether the reported solubility kinetic at 1 h for CN(C)Cc1ccc(-c2[nH]c3ncc(C#N)cc3c2-c2ccccc2)cc1 is at least 20 µM. no
